Listed compounds paired with reported Population Normal (%)
Tested on: HEK-293T
Assay: Multiplex assay against HEK293T
Type: toxicity, cell-based
Conditions: human, 12 h, 10 µM, compound concentration 10 uM, replicate 2
property name: Population Normal (%)

>>> print(df.to_string())
                                   compound          property_name  u  numeric_result
0  COCCCN1CCC(NC(=O)c2cc(Cl)c(N)c3c2OCC3)CC1 [PRUCALOPRIDE]  Population Normal (%)  %              89
1  Cc1cc(-c2ccc3c(c2)CC[C@H]3N2CC3(CCN(C(=O)Cc4cn5cc(C)sc5n4)CC3)C2)ncn1  Population Normal (%)  %              91
2  COCCn1c(C)c(C)s/c1=N\C(=O)C1C(C)(C)C1(C)C  Population Normal (%)  %              88
3  COc1cc2nc(N3CCN(C(=O)c4ccco4)CC3)nc(N)c2cc1OC.Cl [PRAZOSIN HYDROCHLORIDE]  Population Normal (%)  %              90
4  N[C@](CC1c2ccccc2Oc2ccccc21)(C(=O)O)[C@H]1C[C@@H]1C(=O)O  Population Normal (%)  %              92

* * *

Tested on: Fibroblast
Test: Multiplex assay against human fibroblast
Type: toxicity, cell-based
Conditions: 12 h, 1 µM, compound concentration 1 uM, replicate 2
Listed compounds paired with reported Population Healthy Nuclei (%)
property name: Population Healthy Nuclei (%)

In [3]: df
Out[3]:
                                    compound  result
 0  CSc1nc(NC2CCCC2)c([N+](=O)[O-])c(NC2CCCC2)n1 [GS-39783]     46%
 1  O=C(O)CCC/C=C\CC1C(O)CC(O)C1/C=C/C(O)COc1cccc(Cl)c1 (centres undefined) [CLOPROSTENOL]     52%
 2  COc1ccc2c(c1OCc1ccccc1)C[C@@H](C(=O)O)N(C(=O)C(c1ccccc1)c1ccccc1)C2 [OLODANRIGAN]     50%
 3  N[C@](CC1c2ccccc2Oc2ccccc21)(C(=O)O)[C@H]1C[C@@H]1C(=O)O     59%
 4  COc1cc2nc(N3CCN(C(=O)c4ccco4)CC3)nc(N)c2cc1OC.Cl [PRAZOSIN HYDROCHLORIDE]     52%
 5  Cc1c(Cc2ccc3ccccc3n2)c2cc(F)ccc2n1CC(=O)O [TIMAPIPRANT]     49%
 6  CN1CCC(C(=O)c2cccc(NC(=O)c3c(F)cc(F)cc3F)n2)CC1     53%
 7  CCCCC[C@H](O)/C=C/[C@H]1[C@H](O)CC(=O)[C@@H]1CCCCCCC(=O)O [ALPROSTADIL]     57%
 8  O=C(Nc1cc(-c2ccccc2)nn1-c1ccccc1F)c1ccc([N+](=O)[O-])cc1     55%
 9  COc1ccc2[nH]c(I)c(CCNC(C)=O)c2c1 [IODOMELATONIN]     60%
10   OCCCNc1cc(-c2ccnc(Nc3cccc(Cl)c3)n2)ccn1     53%
11  O=c1nc2[nH]c3ccccc3nc-2c(=O)[nH]1 [ALLOXAZINE]     50%
12  O=c1ccc2ccc(OCCCCN3CCN(c4cccc5sccc45)CC3)cc2[nH]1 [BREXPIPRAZOLE]     44%
13  COc1cc2nc(N3CCN(C(=O)COc4c(OC)cccc4C(C)C)CC3)nc(N)c2cc1OC.Cl.Cl     42%

* * *

Test system: Fibroblast
Experiment: Multiplex assay against human fibroblast
Format: toxicity, cell-based
Conditions: 48 h, 10 µM, compound concentration 10 uM, replicate 1
Listed molecules paired with reported Population Tubulin-Different-Phenotype (%)
property name: Population Tubulin-Different-Phenotype (%)

>>> print(df.to_string())
                                   molecule  numeric_result
0  C[C@@H]1CC(=O)Nc2cccc(-c3ccc4c(c3)c(-c3cnn(C)c3)nn4C)c2N1              68
1  COc1cc2nc(N3CCN(C(=O)COc4c(OC)cccc4C(C)C)CC3)nc(N)c2cc1OC.Cl.Cl              42
2  Cc1nn(C)c2nc(NNC(=O)Nc3cc(Cl)nc(Cl)c3)cc(C(C)C)c12              96
3  COCCn1c(C)c(C)s/c1=N\C(=O)C1C(C)(C)C1(C)C              67
4  COCCCN1CCC(NC(=O)c2cc(Cl)c(N)c3c2OCC3)CC1 [PRUCALOPRIDE]              38
5  COc1cc(OC2CCN(C(C)=O)CC2)ccc1C(=O)N1CCC(N2C(=O)OCc3ccccc32)CC1              51
6  CN1CCC(C(=O)c2cccc(NC(=O)c3c(F)cc(F)cc3F)n2)CC1              40

* * *

Listed compounds paired with reported Population Mitochondria Different-Phenotype (%)
Tested on: Fibroblast
Test: Multiplex assay against human fibroblast
Format: toxicity, cell-based
Conditions: 12 h, 10 µM, compound concentration 10 uM, replicate 1
property name: Population Mitochondria Different-Phenotype (%)

                                   compound  target_under_test  numeric_result
0  COc1ccc2[nH]c(I)c(CCNC(C)=O)c2c1 [IODOMELATONIN]         Fibroblast               6
1  S=C(NCCCc1c[nH]cn1)NCCCN(Cc1ccc(Cl)c(Cl)c1)c1ccc(Br)cn1         Fibroblast              15
2  COc1cc2nc(N3CCN(C(=O)COc4c(OC)cccc4C(C)C)CC3)nc(N)c2cc1OC.Cl.Cl         Fibroblast              15
3  COCCCN1CCC(NC(=O)c2cc(Cl)c(N)c3c2OCC3)CC1 [PRUCALOPRIDE]         Fibroblast               7

* * *

System: U2OS
Test: Multiplex assay against U2OS
Type: toxicity, cell-based
Settings: human, 48 h, 10 µM, compound concentration 10 uM, replicate 2
property name: Population Mitotic Cells (%)

compound	numeric result
COc1cc2nc(N3CCN(C(=O)c4ccco4)CC3)nc(N)c2cc1OC.Cl [PRAZOSIN HYDROCHLORIDE]	5
O=c1ccc2ccc(OCCCCN3CCN(c4cccc5sccc45)CC3)cc2[nH]1	0
CCn1c(-c2nc3cc(C(=O)N4CCCC(N)C4)ccc3n2C)cc2ccccc21.Cl (stereo not drawn)	22
COc1cc2nc(N3CCN(C(=O)COc4c(OC)cccc4C(C)C)CC3)nc(N)c2cc1OC.Cl.Cl	6
CCc1nn2c(C)cc(C)nc2c1Cc1ccc(-c2nnc(C3CCNCC3)o2)cc1	24
CN1CCN(c2ccc(Nc3c4ccccc4nc4ccccc34)cc2)CC1.Cl.Cl.O	0
CCC(=O)OCC(=O)[C@@]1(OC(=O)CC)[C@@H](C)C[C@H]2[C@@H]3CCC4=CC(=O)C=C[C@]4(C)[C@@]3(Cl)[C@@H](O)C[C@@]21C [BECLOMETHASONE DIPROPIONATE]	29
CC(C)C[C@H](CO)Nc1nc(S[C@@H](C)c2ccccc2)nc2nc(N)sc12	3

* * *

System: U2OS
Assay: Multiplex assay against U2OS
Assay type: toxicity, cell-based
Conditions: human, 24 h, 1 µM, compound concentration 1 uM, replicate 2
Kind request: treat 20% as inclusive, so Population Fragmented Nuclei (%) at 20% or higher is YES, anything lower is NO.

molecule	label value
COc1cc(OC2CCN(C(C)=O)CC2)ccc1C(=O)N1CCC(N2C(=O)OCc3ccccc32)CC1	YES
CC(C)C[C@H](CO)Nc1nc(S[C@@H](C)c2ccccc2)nc2nc(N)sc12	NO
C[C@@H]1CC(=O)Nc2cccc(-c3ccc4c(c3)c(-c3cnn(C)c3)nn4C)c2N1	YES
Nc1nc(-c2ccco2)c2cnn(Cc3ccccc3F)c2n1	NO
S=C(NCCCc1c[nH]cn1)NCCCN(Cc1ccc(Cl)c(Cl)c1)c1ccc(Br)cn1	YES
CCC(=O)OCC(=O)[C@@]1(OC(=O)CC)[C@@H](C)C[C@H]2[C@@H]3CCC4=CC(=O)C=C[C@]4(C)[C@@]3(Cl)[C@@H](O)C[C@@]21C [BECLOMETHASONE DIPROPIONATE]	NO
COc1c(Nc2ccc(S(C)(=O)=O)nc2C)ncnc1OC1CCN(C(=O)OC(C)C)CC1	NO
O=c1nc2[nH]c3ccccc3nc-2c(=O)[nH]1	NO
C=CCN1C[C@H](C(=O)N(CCCN(C)C)C(=O)NCC)C[C@@H]2c3cccc4[nH]cc(c34)C[C@H]21	NO
Cc1ccc(OCC(O)C(C)NC(C)C)c2c1CCC2.Cl (configuration not stated)	NO
COC(c1ccccc1)(c1ccccc1)[C@H](Oc1nc(C)cc(C)n1)C(=O)O	YES
O=C(Nc1cc(-c2ccccc2)nn1-c1ccccc1F)c1ccc([N+](=O)[O-])cc1	NO
COCCCN1CCC(NC(=O)c2cc(Cl)c(N)c3c2OCC3)CC1 [PRUCALOPRIDE]	YES
Cc1nn(C)c2nc(NNC(=O)Nc3cc(Cl)nc(Cl)c3)cc(C(C)C)c12	NO
N[C@](CC1c2ccccc2Oc2ccccc21)(C(=O)O)[C@H]1C[C@@H]1C(=O)O	NO
Cc1cc(=O)n(C)c2cc(N3C(=O)CC[C@H](NS(=O)(=O)CC(C)C)[C@H]3c3ccc(Cl)cc3)ccc12	NO
COc1ccc2c(c1OCc1ccccc1)C[C@@H](C(=O)O)N(C(=O)C(c1ccccc1)c1ccccc1)C2	NO
Nc1nc(CC(=O)Nc2ccc(CCNC[C@H](O)c3ccccc3)cc2)cs1	NO
Cc1cc(NC(=O)NCCN2CCC(O)(Cc3ccccc3)CC2)c2ccccc2n1	NO
CCCCCCNC(=O)Nc1ccc(S(=O)(=O)Nc2ccc(CCNC[C@H](O)COc3ccc(O)cc3)cc2)cc1	YES
